- subject of test: T1, Cre recombinase monomer with Q311R mutation
- T1 chain: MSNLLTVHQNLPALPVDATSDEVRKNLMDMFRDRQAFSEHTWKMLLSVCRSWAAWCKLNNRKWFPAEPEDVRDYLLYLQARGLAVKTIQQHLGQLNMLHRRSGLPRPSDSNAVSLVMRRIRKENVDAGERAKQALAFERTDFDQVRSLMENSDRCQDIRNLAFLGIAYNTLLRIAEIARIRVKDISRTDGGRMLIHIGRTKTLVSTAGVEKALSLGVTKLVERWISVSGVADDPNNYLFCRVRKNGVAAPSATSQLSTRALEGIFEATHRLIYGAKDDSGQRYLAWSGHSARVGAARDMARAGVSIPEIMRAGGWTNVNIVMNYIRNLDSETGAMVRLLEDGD
Let's look at some proteins and their measured Median dimer activity (recombination on loxP).
assay readout: Median dimer activity (recombination on loxP) (%)

| protein | units label | meas value |
| --- | --- | --- |
| Cre recombinase monomer with H289W mutation (protein) MSNLLTVHQNLPALPVDATSDEVRKNLMDMFRDRQAFSEHTWKMLLSVCRSWAAWCKLNNRKWFPAEPEDVRDYLLYLQARGLAVKTIQQHLGQLNMLHRRSGLPRPSDSNAVSLVMRRIRKENVDAGERAKQALAFERTDFDQVRSLMENSDRCQDIRNLAFLGIAYNTLLRIAEIARIRVKDISRTDGGRMLIHIGRTKTLVSTAGVEKALSLGVTKLVERWISVSGVADDPNNYLFCRVRKNGVAAPSATSQLSTRALEGIFEATHRLIYGAKDDSGQRYLAWSGWSARVGAARDMARAGVSIPEIMQAGGWTNVNIVMNYIRNLDSETGAMVRLLEDGD | % | 95 |
| Cre recombinase monomer with R173A mutation (protein) MSNLLTVHQNLPALPVDATSDEVRKNLMDMFRDRQAFSEHTWKMLLSVCRSWAAWCKLNNRKWFPAEPEDVRDYLLYLQARGLAVKTIQQHLGQLNMLHRRSGLPRPSDSNAVSLVMRRIRKENVDAGERAKQALAFERTDFDQVRSLMENSDRCQDIRNLAFLGIAYNTLLAIAEIARIRVKDISRTDGGRMLIHIGRTKTLVSTAGVEKALSLGVTKLVERWISVSGVADDPNNYLFCRVRKNGVAAPSATSQLSTRALEGIFEATHRLIYGAKDDSGQRYLAWSGHSARVGAARDMARAGVSIPEIMQAGGWTNVNIVMNYIRNLDSETGAMVRLLEDGD | % | 93 |
| Cre recombinase monomer with R173F mutation (protein) MSNLLTVHQNLPALPVDATSDEVRKNLMDMFRDRQAFSEHTWKMLLSVCRSWAAWCKLNNRKWFPAEPEDVRDYLLYLQARGLAVKTIQQHLGQLNMLHRRSGLPRPSDSNAVSLVMRRIRKENVDAGERAKQALAFERTDFDQVRSLMENSDRCQDIRNLAFLGIAYNTLLFIAEIARIRVKDISRTDGGRMLIHIGRTKTLVSTAGVEKALSLGVTKLVERWISVSGVADDPNNYLFCRVRKNGVAAPSATSQLSTRALEGIFEATHRLIYGAKDDSGQRYLAWSGHSARVGAARDMARAGVSIPEIMQAGGWTNVNIVMNYIRNLDSETGAMVRLLEDGD | % | 84 |
| Cre recombinase monomer with R173V mutation (protein) MSNLLTVHQNLPALPVDATSDEVRKNLMDMFRDRQAFSEHTWKMLLSVCRSWAAWCKLNNRKWFPAEPEDVRDYLLYLQARGLAVKTIQQHLGQLNMLHRRSGLPRPSDSNAVSLVMRRIRKENVDAGERAKQALAFERTDFDQVRSLMENSDRCQDIRNLAFLGIAYNTLLVIAEIARIRVKDISRTDGGRMLIHIGRTKTLVSTAGVEKALSLGVTKLVERWISVSGVADDPNNYLFCRVRKNGVAAPSATSQLSTRALEGIFEATHRLIYGAKDDSGQRYLAWSGHSARVGAARDMARAGVSIPEIMQAGGWTNVNIVMNYIRNLDSETGAMVRLLEDGD | % | 92 |
